Reported pIC50 values for a set of compounds
Assay: Antiproliferative activity against human KB-VIN cells assessed as cell growth inhibition incubated for 72 hrs by sulforhodamine B assay
Format: functional, cell-based
Conditions: KBVIN
Please treat pIC50 as minus the base-10 logarithm of the molar concentration.

Please review the entries below; each comes with its answer.
input: I'd like to know its pIC50. The compound in question is C[C@H]1C(=O)C=C(Br)C2=CC(=O)CC[C@@]21C
output: 4.72

input: Also CC(=O)C1=C(O)C=C2C=CC(=O)[C@H](C)[C@@]2(C)C1 , if possible.
output: 4.59

input: Also CC(=O)O[C@H]1C(=O)[C@@]2(C)[C@H]([C@H](OC(=O)c3ccccc3)[C@]3(O)C[C@H](OC(=O)[C@H](O)[C@@H](NC(=O)c4ccccc4)c4ccccc4)C(C)=C1C3(C)C)[C@]1(OC(C)=O)CO[C@@H]1C[C@@H]2O , if possible.
output: 5.62

Now let's try a different one.
input: I'd like to know its pIC50. The compound in question is CC(=O)C1=C(O)C=C2C(Br)=CC(=O)[C@H](C)[C@@]2(C)C1
output: 5.10

* * *

Assay: Antiproliferative activity against human KB-VIN cells assessed as cell growth inhibition incubated for 72 hrs by sulforhodamine B assay
Assay type: functional, cell-based
Conditions: KBVIN
Reported IC50 values for a set of molecules
Expressed in µM, but write only the number.

input: I'd like to know its IC50. The molecule in question is C[C@H]1[C@H](O)C=C(Br)C2=CC(=O)CC[C@@]21C
output: 37

Now let's try a different one.
input: I'd like to know its IC50. The molecule in question is CC(=O)C1=C(O)C=C2C(Br)=C[C@H](O)[C@H](C)[C@@]2(C)C1
output: 18

* * *

Assay: Antiproliferative activity against human KB-VIN cells assessed as cell growth inhibition incubated for 72 hrs by sulforhodamine B assay
Assay type: functional, cell-based
Conditions: KBVIN
Reported IC50 values for a set of compounds

input: I'd like to know its IC50. The compound in question is CC(=O)C1=C(O)C=C2C=C[C@H](O)[C@H](C)[C@@]2(C)C1
output: > 40 µM

input: Also C[C@H]1[C@H](O)C=CC2=CC(=O)CC[C@@]21C , if possible.
output: > 40 µM

input: Also C[C@H]1C(=O)C=CC2=CC(=O)CC[C@@]21C , if possible.
output: > 40 µM
